system: 485368-065-R3-J5-PDC spheroids with HUVEC/MSC, viability; test: Anticancer human tumor 485368-065-R3-J5-PDC patient-derived pancreatic carcinoma cell line growth inhibition [RAS]; details: curve of first compound; second compound 0.1 µM;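 further: spheroids exposed to agents for seven days before readout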
pIC50: −log10 of the molar value.
Classify by measured pIC50: yes if it is equal to or exceeds 6, no if it is smaller.

• NC1c2ccccc2OC12CCN(c1cnc3c(N4CCCc5ncccc54)n[nH]c3n1)CC2 (stereo not given) + C#Cc1c(F)ccc2cc(O)cc(-c3ncc4c(N5CC6CCC(C5)N6)nc(OCC56CCCN5CC(F)C6)nc4c3F)c12 = no
• CCN1CCN(Cc2ccc(Nc3ncc(F)c(-c4cc(F)c5nc(C)n(C(C)C)c5c4)n3)nc2)CC1 + C=CC(=O)N1CCN(c2nc(OCC3CCCN3C)nc3c(F)c(-c4nc(N)cc(C)c4C(F)(F)F)c(Cl)cc23)C(C)C1 = yes
• CC(C)NCC(C(=O)N1CCN(c2ncnc3c2C(C)CC3O)CC1)c1ccc(Cl)cc1 (stereo not given) + C#Cc1c(F)ccc2cc(O)cc(-c3ncc4c(N5CC6CCC(C5)N6)nc(OCC56CCCN5CC(F)C6)nc4c3F)c12 = no
• CCc1c2c(nc3ccc(O)cc13)-c1cc3c(c(=O)n1C2)COC(=O)[C@]3(O)CC + C=CC(=O)N1CCN(c2nc(OCC3CCCN3C)nc3c(F)c(-c4nc(N)cc(C)c4C(F)(F)F)c(Cl)cc23)C(C)C1 = yes
• C=CC(=O)Nc1cc(Nc2nccc(-c3cn(C)c4ccccc34)n2)c(OC)cc1N(C)CCN(C)C + C#Cc1c(F)ccc2cc(O)cc(-c3ncc4c(N5CC6CCC(C5)N6)nc(OCC56CCCN5CC(F)C6)nc4c3F)c12 = no

// query Threshold query (pIC50 >= 6) on C=CC(=O)Nc1cc(Nc2nccc(-c3cn(C)c4ccccc34)n2)c(OC)cc1N(C)CCN(C)C + C=CC(=O)N1CCN(c2nc(OCC3CCCN3C)nc3c(F)c(-c4nc(N)cc(C)c4C(F)(F)F)c(Cl)cc23)C(C)C1
// result no

// query Reported pIC50 at or above 6? CC1(O)CCCC1n1c(=O)c(C(F)F)cc2cnc(NC3CCN(S(C)(=O)=O)CC3)nc21 (stereo not given) + C#Cc1c(F)ccc2cc(O)cc(-c3ncc4c(N5CC6CCC(C5)N6)nc(OCC56CCCN5CC(F)C6)nc4c3F)c12
// result yes

// query Decide: pIC50 of CCc1c2c(nc3ccc(O)cc13)-c1cc3c(c(=O)n1C2)COC(=O)[C@]3(O)CC + C#Cc1c(F)ccc2cc(O)cc(-c3ncc4c(N5CC6CCC(C5)N6)nc(OCC56CCCN5CC(F)C6)nc4c3F)c12 >= 6?
// result yes

// query Check this compound for pIC50 at or above 6: C[C@@H](NC(=O)c1ncnc(N)c1Cl)c1ncc(C(=O)Nc2cc(C(F)(F)F)c(Cl)cn2)s1 + C#Cc1c(F)ccc2cc(O)cc(-c3ncc4c(N5CC6CCC(C5)N6)nc(OCC56CCCN5CC(F)C6)nc4c3F)c12
// result no

// query Check the entry CC(C)n1nc(-c2ccc3oc(N)nc3c2)c2c(N)ncnc21 + C#Cc1c(F)ccc2cc(O)cc(-c3ncc4c(N5CC6CCC(C5)N6)nc(OCC56CCCN5CC(F)C6)nc4c3F)c12 : does pIC50 equal or exceed 6?
// result yes
